- experimental target: T1, recombinant cynomolgus monkey CD112R antigen (cynomolgus monkey, UniProt A0A2K5WVV8 1-322)
- T1 construct: bought
- T1 sequence: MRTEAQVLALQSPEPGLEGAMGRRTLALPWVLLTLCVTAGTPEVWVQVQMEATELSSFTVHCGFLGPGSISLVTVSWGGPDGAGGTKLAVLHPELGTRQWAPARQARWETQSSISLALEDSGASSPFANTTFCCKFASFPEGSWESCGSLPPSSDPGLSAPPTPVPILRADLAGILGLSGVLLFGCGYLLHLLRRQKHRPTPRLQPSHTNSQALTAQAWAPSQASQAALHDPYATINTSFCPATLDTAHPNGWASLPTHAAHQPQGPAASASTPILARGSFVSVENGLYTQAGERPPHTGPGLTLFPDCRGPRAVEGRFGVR
- test name: ELISA, coated cynomolgus monkey CD112R; EC50 Ref/EC50 antibody

[
  {
    "binder": "Chi-36 (antibody, V domains shown, chimeric) VH: EVQLQQSGPELVKPGASVRISCKASGYTFTDYNMHWVKQSHGKSLEWIGYIYPYNGGTGHNQNFKSKATLTVDKSSSTAYMEFRSLTSDDSAVYYCAREDFRHEKMDYWGQGTSVTVSS VL: DIQMTQSPASLSASVGETVTITCRTSDNIYVYLSWYQQKQGKSPQLLVYNAKTLTENVPSRFSGSGSGTQFSLKINSLQPEDFGSYYCQHHYGTPYTFGGGTKLEIK",
    "Relative activity (%)": 89.6
  },
  {
    "binder": "Chi-55 (antibody, V domains shown, chimeric) VH: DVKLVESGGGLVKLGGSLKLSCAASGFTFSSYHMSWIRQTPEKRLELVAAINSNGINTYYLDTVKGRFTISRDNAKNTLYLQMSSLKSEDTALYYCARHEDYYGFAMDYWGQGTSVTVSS VL: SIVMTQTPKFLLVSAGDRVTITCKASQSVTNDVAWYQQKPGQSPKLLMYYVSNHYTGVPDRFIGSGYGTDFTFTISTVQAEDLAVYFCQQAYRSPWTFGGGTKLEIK",
    "Relative activity (%)": 100
  },
  {
    "binder": "Chi-53 (antibody, V domains shown, chimeric) VH: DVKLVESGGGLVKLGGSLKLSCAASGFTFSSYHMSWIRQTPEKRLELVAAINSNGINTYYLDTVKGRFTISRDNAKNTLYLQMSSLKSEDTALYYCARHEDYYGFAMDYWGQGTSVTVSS VL: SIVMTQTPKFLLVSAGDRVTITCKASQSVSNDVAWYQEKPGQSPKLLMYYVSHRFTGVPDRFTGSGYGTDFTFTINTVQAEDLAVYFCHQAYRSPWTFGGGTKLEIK",
    "Relative activity (%)": 106
  }
]
